System: ACHN renal
Experiment: NCI-60 one-dose screen, 48 h
Settings: 10 µM unless noted
Compounds without any hit were thinned out: in the full panel of roughly 83,000, 20% have a hit. The source made the active and inactive calls. The calls were made as follows: active = growth percent below 10; inactive = the rest.
Labels: Yes = active, No = inactive

| smiles-str | assigned-label |
| --- | --- |
| O=C(/C=C\c1ccccc1Cl)c1ccccc1 | No |
| CC(=O)NCCN | No |
| OC(c1ccccc1)(c1ccccc1)C(F)(F)F | No |
| CC(=O)NNC(=O)c1sc(NC(C)=O)nc1C | No |
| CCN(CC)c1ccc2nc3ccc(N=Nc4ccc(O)cc4)cc3[n+](-c3ccccc3)c2c1 | No |
| CCCCN(CCC)CCCCCCCCCCN1CCCc2ccccc21 | No |
| COc1nc(OC)nc(-c2cc(C(=O)c3ccc(Br)cc3)n3cc(C)cc(C)c23)n1 | No |
| COc1ccc2nc3cc(Cl)ccc3c(NCCCNC(C)=O)c2c1 | No |
| COC(=O)[C@H](Cc1cn(C)cn1)NC(=O)[C@H](Cc1c[nH]c2ccccc12)NC(=O)Nc1cc(C(F)(F)F)cc(C(F)(F)F)c1 | Yes |
| COC(=O)c1cc(O)c2cc3c(cc2c1-c1cc(OC)c(OC)c(OC)c1)OCO3 | No |
| CC[n+]1c(C)ccc2cc(C)ccc21 | No |
